Test system: HEK293
Experiment: Cytotoxic Profiling of Annotated Libraries Using Quantitative High-Throughput Screening (AID 1296008); also: % is scaled to controls: 0 for no effect and ±100 for the full control effect; nearly all actives have a fitted effect of over 60% in size
Conditions: Five cell lines viability, CellTiter-Glo ATP luminescence, 48-72 h; stronger effect = lower value
Inconclusive results are not listed. Where a SMILES comes first, the peptide text is derived from it. The star is where a group is joined. Cbz = O=C(OCc1ccccc1)*; CH2F = FC*

{"columns": ["compound", "max response (%)"],
 "data": [
  ["CC/C=C\\C(O)C(O)C1=C(C)C(=O)C2(O1)C(=O)NC(OC)(C(=O)c1ccccc1)C2O (stereo not drawn)", -0.178],
  ["C=C1CCC2C(C)(C(=O)OC)CCCC2(C)C1CCC1=CCOC1=O (stereo not drawn)", 2.4],
  ["C=C1C2(C)CC3C4(C)OC(C5OC56C4=CC(=O)OC6(C)C)C3(C)C13C(=O)OC(C)C3(O)C2=O (stereo not drawn)", -4.51],
  ["C/C=C/C=C/C1=C2C(=O)C3(C)C4C(C(=O)CC(O)/C=C/C)=C(O1)C1(C)C2C2(C)OC1(O)C4(C)OC23O (stereo not drawn)", -2.55],
  ["COC(=O)CC[C@H](NC(=O)[C@H](CC(C)C)NC(=O)OCc1ccccc1)C(=O)N[C@@H](Cc1cnc[nH]1)C(=O)N[C@@H](CC(=O)OC)C(=O)CF (Cbz-LE(OMe)HD(OMe)-CH2F)", 2.63],
  ["Cc1ncc([N+](=O)[O-])n1C[C@H](O)CN1CCOCC1", 2.87],
  ["CC(C)=CC1C[C@](C)(O)[C@@H]2[C@H]3CCC4[C@@]5(C)CC[C@H](O[C@@H]6OC[C@H](O)[C@H](O[C@@H]7O[C@H](CO[C@@H]8O[C@H](CO)[C@@H](O)[C@H](O)[C@H]8O)[C@@H](O)[C@H](O)[C@H]7O)[C@H]6O[C@@H]6O[C@@H](C)[C@H](O)[C@@H](O)[C@H]6O)C(C)(C)[C@@H]5CC[C@@]4(C)[C@@]34CO[C@@]2(C4)O1 (stereo partly drawn)", -3.55],
  ["CC(=O)O[C@@H]1C=C2[C@H](CC[C@@]3(C)[C@@]2(O)CC[C@H]2Cc4c([nH]c5ccccc45)[C@@]23C)O[C@@H]1C(C)(C)O", -5.86]
]}

* * *

Assay: Primary qHTS for inhibitors of nuclear receptor binding SET domain protein 2 (NSD2) in an RCH-ACV wild type WT cells (2C) (AID 1645877); also: nearly all actives have a fitted effect of over 70% in size; as to activity change, negative = cell killing: % is scaled to controls: 0 for no effect and ±100 for the full control effect
Conditions: RCH-ACV (leukaemia line) NSD2 WT (2C) viability, CellTiter-Glo, 72 h; series mostly up to 44.9 µM
Records with an inconclusive call do not appear. Calls of active or inactive are those of the source. The call rests on the fitted dose curve; in most records, active means well fitted inhibition curve with a large enough effect; inconclusive means small, poorly fitted or top-dose-only effect; inactive means no such curve, though single readings can be large or run the other way.
parameter: activity change, negative = cell killing

{"columns": ["molecule", "test value"],
 "data": [
  ["CCOC(=O)C(CCc1ccccc1)NC(C)C(=O)N1Cc2ccccc2CC1C(=O)O (stereo unspecified)", "inactive"],
  ["COc1ccc(/C=C/C(=O)O[C@@H]2[C@@H](O[C@@H]3O[C@H](CO)[C@@H](O)[C@H](O)[C@H]3O)[C@@H](O)[C@H](O[C@H]3C4C=CO[C@@H](O[C@@H]5O[C@H](CO)[C@@H](O)[C@H](O)[C@H]5O)C4[C@@]4(CO)O[C@@H]34)O[C@H]2C)cc1 (stereo partly specified)", "-20.7% [at 9.23 µM] (inactive)"],
  ["COc1cccc(OC)c1-c1nc(C(=O)N[C@@H](CC(C)C)C(=O)O)cn1-c1ccnc2cc(Cl)ccc12", "inactive"],
  ["C/C=C(/C)C(=O)OC1CC(C)(C)CC2C3=CCC4C5(C)CCC(OC6OC(C)C(OC7OC(C(=O)O)C(O)C(OC8OC(CO)C(O)C(O)C8OC8OC(CO)C(O)C(O)C8O)C7O)C(O)C6O)C(C)(C)C5CCC4(C)C3(C)C(OC(=O)/C=C/C=C/C=C/CCC)C(OC(C)=O)C12CO (stereo unspecified)", "-14.8% [at 9.23 µM] (inactive)"],
  ["C/C(CO)=C1/CCC23COC(C2)C(O)(C(=O)O)CCC13 (stereo unspecified)", "inactive"],
  ["C=C[C@@]1(C)CCC2=C([C@H]1OC(C)=O)[C@H](OC(C)=O)CC1[C@](C)(C(=O)OC)CC[C@H](OC(C)=O)[C@]21C (stereo partly specified)", "inactive"]
]}
